- targetOfAssay: BaF3_HER2WT cells (Homo sapiens)
- Sequence (P04626 whole entry, change not shown): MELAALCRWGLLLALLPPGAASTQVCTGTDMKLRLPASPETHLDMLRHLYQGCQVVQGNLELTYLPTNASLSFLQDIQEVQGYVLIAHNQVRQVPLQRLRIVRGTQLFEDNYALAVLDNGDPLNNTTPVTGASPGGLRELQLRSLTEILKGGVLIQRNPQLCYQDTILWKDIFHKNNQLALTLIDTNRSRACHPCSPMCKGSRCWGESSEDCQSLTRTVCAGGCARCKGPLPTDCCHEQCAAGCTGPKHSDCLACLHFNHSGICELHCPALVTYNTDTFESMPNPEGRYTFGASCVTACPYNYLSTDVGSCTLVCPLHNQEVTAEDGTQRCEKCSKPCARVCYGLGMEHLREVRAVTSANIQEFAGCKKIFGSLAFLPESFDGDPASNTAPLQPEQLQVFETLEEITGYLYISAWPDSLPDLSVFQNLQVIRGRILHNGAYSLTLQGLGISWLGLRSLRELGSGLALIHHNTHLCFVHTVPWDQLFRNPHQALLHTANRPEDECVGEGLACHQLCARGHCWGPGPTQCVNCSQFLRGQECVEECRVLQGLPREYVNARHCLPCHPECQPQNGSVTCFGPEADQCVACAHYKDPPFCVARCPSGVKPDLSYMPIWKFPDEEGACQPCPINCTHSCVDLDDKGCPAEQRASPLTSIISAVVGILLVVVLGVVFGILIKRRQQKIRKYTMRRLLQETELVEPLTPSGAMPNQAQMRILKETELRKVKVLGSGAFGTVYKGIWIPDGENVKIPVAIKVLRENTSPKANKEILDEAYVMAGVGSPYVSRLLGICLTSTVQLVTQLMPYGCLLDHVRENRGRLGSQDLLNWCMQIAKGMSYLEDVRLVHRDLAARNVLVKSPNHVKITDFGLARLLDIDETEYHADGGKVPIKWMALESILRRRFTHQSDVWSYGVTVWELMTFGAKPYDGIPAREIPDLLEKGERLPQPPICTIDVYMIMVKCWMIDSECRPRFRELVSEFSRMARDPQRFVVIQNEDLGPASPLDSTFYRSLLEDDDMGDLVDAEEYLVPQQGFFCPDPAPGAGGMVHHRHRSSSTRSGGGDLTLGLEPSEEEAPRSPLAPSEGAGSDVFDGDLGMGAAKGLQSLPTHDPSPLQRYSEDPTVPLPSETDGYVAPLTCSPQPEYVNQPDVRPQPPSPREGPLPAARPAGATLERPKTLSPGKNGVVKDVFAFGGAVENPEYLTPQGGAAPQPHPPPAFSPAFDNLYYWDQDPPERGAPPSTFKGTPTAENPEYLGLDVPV
- methodDescription: Cell growth inhibition assay (CellTiterGlo), BaF3_HER2WT
- Assay type: cell-based
- statedConditions: 3-day treatment, CellTiterGlo, read-out: Cell growth inhibition activity, HER2 WT
metricName: GI50

Worked examples follow.
molecule: Cc1cc(Nc2ncnn3ccc(C4CN(C(=O)/C=C/CN5CCC(F)(F)CC5)C4)c23)ccc1Oc1ccn2ncnc2c1 [Example 85]
targetOfAssay: BaF3_HER2WT cells (Homo sapiens)
result: < 200 nM

molecule: C=CC(=O)NC1CCCN(c2ccn3ncnc(Nc4ccc(Oc5ccn6ncnc6c5)c(C)c4)c23)C1 (centres unmarked) [Example 76]
targetOfAssay: BaF3_HER2WT cells (Homo sapiens)
result: < 200 nM

molecule: Cc1cc(Nc2ncnn3ccc(N4CCCN(C(=O)/C=C/CN5CCOCC5)CC4)c23)ccc1Oc1ccn2ncnc2c1 [Example 80]
targetOfAssay: BaF3_HER2WT cells (Homo sapiens)
result: < 200 nM

molecule: C=CC(=O)N1CCC(c2ccn3ncnc(Nc4ccc(Oc5ccn6ncnc6c5)c(C)c4)c23)C1 (centres unmarked) [Example 11]
targetOfAssay: BaF3_HER2WT cells (Homo sapiens)
result: < 200 nM

molecule: CO[C@@H]1CN(C/C=C/C(=O)N2CC(c3ccn4ncnc(Nc5ccc(Oc6ccc7c(c6)ncn7C)c(C)c5)c34)C2)C[C@H]1OC [Example 166]
targetOfAssay: BaF3_HER2WT cells (Homo sapiens)
result: < 200 nM

molecule: CN(C)C/C=C/C(=O)N1CC(c2ccn3ncnc(Nc4cnc(Oc5cccc(C(F)(F)F)c5)c(Cl)c4)c23)C1 [Example 90]
targetOfAssay: BaF3_HER2WT cells (Homo sapiens)
result: 1500 to 5000 nM

Exercise: Please look up its GI50: C=CC(=O)N1CC2CCC(C1)N2c1ccn2ncnc(Nc3ccc(Oc4ccn5ncnc5c4)c(C)c3)c12 [Example 44]
Key: < 200 nM

Exercise: What about C=CC(=O)N1CCN(c2ccn3ncnc(Nc4ccc(Oc5ccn6ncnc6c5)c(C)c4)c23)CC12CC2 [Example 75] ?
Key: < 200 nM

Exercise: What about Cc1cc(Nc2ncnn3ccc(C4CCN(C(=O)/C=C/C(=O)O)CC4)c23)ccc1Oc1ccn2ncnc2c1 [Example 142] ?
Key: 1500 to 5000 nM
